Reference source for all entries: patent US20230192839A1

test.target: T1, human CD33 antigen (human, UniProt P20138 18-259, limits assumed)
T1 construct: whole entry named; also called Siglec-3
T1 sequence (P20138 18-259 limits assumed): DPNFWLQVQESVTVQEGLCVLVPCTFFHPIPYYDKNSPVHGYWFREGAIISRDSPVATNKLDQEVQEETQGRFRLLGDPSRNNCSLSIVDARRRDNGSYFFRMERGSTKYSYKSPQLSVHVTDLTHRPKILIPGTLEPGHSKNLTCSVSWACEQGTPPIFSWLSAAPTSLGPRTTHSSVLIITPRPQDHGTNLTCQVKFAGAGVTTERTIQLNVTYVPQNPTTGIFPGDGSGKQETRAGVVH
test.protocol: SPR (Biacore T200), 37 C, scFv-Fc, 10 uM MTX
measurement.name: koff (s⁻¹)

- P02_C02 scFv-Fc fusion (scFv, V domains shown, Tested as scFv-Fc fusion) VH: QVQLVESGGGLVQAGGSLRLSCAASRRSSRSWAMHWVRQAPGKGLEWVAVISYDGRLKYYADSVKGRFTISRDNAEYLVYLQMNSLRAEDTAVYYCAAEGGMGLDPWGQGTLVTVSS VL: DIQMTQSPSSLSASVGDRVTITCRASQTISSYLNWYQQKPGKAPKLLIYAASNLHSGVPSRFSGSGSGTDFTLTISSLQPEDFATYYCQQSYSSGTFGQGTKVEIK: 0.025
